Recorded inhibition at 10 µM, one value per entry.
system: NCI/ADR-RES; experiment: NCI 60 antitumor screening (single dose / five doses); assay type: cell-based; conditions: Homo sapiens; NCI/ADR-RES (ovarian cancer), single dose 10 μM; read-out: Growth inhibition percentage (GI %)
Expressed in %, but write only the number.

Here's what some known entries look like.
Fc1cccc(/C=N/Nc2nc(N/N=C/c3cccc(F)c3)nc(N3CCOCC3)n2)c1 | 8.29
O=C1Nc2ccc(Cl)cc2/C1=N\Nc1nc(N/N=C2/C(=O)Nc3ccc(Cl)cc32)nc(N2CCOCC2)n1 | 1.85
Clc1cccc(/C=N/Nc2nc(N/N=C/c3cccc(Cl)c3)nc(N3CCOCC3)n2)c1 | 38.2
Brc1cccc(/C=N/Nc2nc(N/N=C/c3cccc(Br)c3)nc(N3CCCCC3)n2)c1 | 9.29
Oc1ccc(/C=N/Nc2nc(N/N=C/c3ccc(O)c(O)c3)nc(N3CCOCC3)n2)cc1O | -5.32
Fc1cccc(Cl)c1/C=N/Nc1nc(N/N=C/c2c(F)cccc2Cl)nc(N2CCOCC2)n1 | 16.8
Clc1cccc(/C=N/Nc2nc(N/N=C/c3cccc(Cl)c3Cl)nc(N3CCCCC3)n2)c1Cl | 32.6
Oc1ccc(/C=N/Nc2nc(N/N=C/c3ccc(O)c(O)c3)nc(N3CCCCC3)n2)cc1O | -3.16
CN(C)c1ccc(/C=N/Nc2nc(N/N=C/c3ccc(N(C)C)cc3)nc(N3CCOCC3)n2)cc1 | 0.17
CN(C)c1ccc(/C=N/Nc2nc(N/N=C/c3ccc(N(C)C)cc3)nc(N3CCCCC3)n2)cc1 | 41.7

Field: next molecule
// fetch inhibition at 10 µM given entry Fc1cccc(/C=N/Nc2nc(N/N=C/c3cccc(F)c3)nc(N3CCCCC3)n2)c1
23.9

====

system: A498; assay: NCI 60 antitumor screening (single dose / five doses); assay type: cell-based; conditions: Homo sapiens, A498, read-out: Growth inhibition percentage (GI %)
Values of inhibition at 10 µM greater than or equal to 10% map to TRUE; values below map to FALSE.

Some entries whose results are on file:
O=[N+]([O-])c1cccc(/C=N/Nc2nc(N/N=C/c3cccc([N+](=O)[O-])c3)nc(N3CCOCC3)n2)c1 | TRUE
O=[N+]([O-])c1cc(/C=N/Nc2nc(N/N=C/c3ccc(Cl)c([N+](=O)[O-])c3)nc(N3CCOCC3)n2)ccc1Cl | FALSE
O=[N+]([O-])c1cc(/C=N/Nc2nc(N/N=C/c3ccc(Cl)c([N+](=O)[O-])c3)nc(N3CCCCC3)n2)ccc1Cl | FALSE
C/C(=N\Nc1nc(N/N=C(\C)c2ccc([N+](=O)[O-])cc2)nc(N2CCOCC2)n1)c1ccc([N+](=O)[O-])cc1 | TRUE

--- query ---
Please check the record O=[N+]([O-])c1cccc(/C=N/Nc2nc(N/N=C/c3cccc([N+](=O)[O-])c3)nc(N3CCCCC3)n2)c1 and state if its inhibition at 10 µM is at or above 10%.
TRUE

====

system: OVCAR-3; experiment: NCI 60 antitumor screening (single dose); assay type: cell-based; settings: Homo sapiens; OVCAR-3 (ovarian cancer), single dose 10 μM; read-out: Growth inhibition percentage (GI %)
assay-readout: inhibition at 10 µM
Respond with the figure and its unit, in that order.

COC(=O)C(Cc1ccccc1)Nc1nc(NC(Cc2ccccc2)C(=O)OC)nc(N2CCOCC2)n1 (centres unmarked) | -11.1%

Answer with the recorded inhibition at 10 µM of Fc1cccc(/C=N/Nc2nc(N/N=C/c3cccc(F)c3)nc(N3CCCCC3)n2)c1 only.
10.6%

For Clc1cccc(/C=N/Nc2nc(N/N=C/c3cccc(Cl)c3Cl)nc(N3CCCCC3)n2)c1Cl , write its inhibition at 10 µM.
91.8%

Complete the entry with inhibition at 10 µM for Fc1cccc(Cl)c1/C=N/Nc1nc(N/N=C/c2c(F)cccc2Cl)nc(N2CCOCC2)n1
22.9%

Tell me its inhibition at 10 µM given Clc1cccc(/C=N/Nc2nc(N/N=C/c3cccc(Cl)c3)nc(N3CCCCC3)n2)c1 as the entry.
8.59%

Give me measured inhibition at 10 µM, please, for this compound: C/C(=N\Nc1nc(N/N=C(\C)c2ccc([N+](=O)[O-])cc2)nc(N2CCOCC2)n1)c1ccc([N+](=O)[O-])cc1
11.6%

Quick one: give measured inhibition at 10 µM for Clc1cccc(/C=N/Nc2nc(N/N=C/c3cccc(Cl)c3Cl)nc(N3CCOCC3)n2)c1Cl
-2.72%

Give the value of inhibition at 10 µM reported for the following: Oc1ccccc1/C=N/Nc1nc(N/N=C/c2ccccc2O)nc(N2CCOCC2)n1
66.4%

====

Form field: inhibition at 10 µM (one value per entry).
test system: K-562; test: NCI 60 antitumor screening (single dose / five doses); type: cell-based; settings: Homo sapiens, K562, read-out: Growth inhibition percentage (GI %)
Give just the numeric value; % need not be written.

Return value of inhibition at 10 µM for input O=[N+]([O-])c1cccc(/C=N/Nc2nc(N/N=C/c3cccc([N+](=O)[O-])c3)nc(N3CCOCC3)n2)c1 , no commentary.
63.3

====

// GI50 lookup, one value per entry
system: K-562; experiment: NCI 60 antitumor screening (single dose / five doses); assay type: cell-based; conditions: Homo sapiens, K562; K-562, five doses (0.01–100 μM); read-out: GI50
Use µM as the unit, but write only the number.

Oc1ccccc1/C=N/Nc1nc(N/N=C/c2ccccc2O)nc(N2CCOCC2)n1 [compound 6a] | 0.68
CN(C)c1ccc(/C=N/Nc2nc(N/N=C/c3ccc(N(C)C)cc3)nc(N3CCCCC3)n2)cc1 [compound 7g] | 0.89
Clc1cccc(/C=N/Nc2nc(N/N=C/c3cccc(Cl)c3)nc(N3CCOCC3)n2)c1 [compound 6d] | 0.69

Determine from records and report GI50 for Brc1cccc(/C=N/Nc2nc(N/N=C/c3cccc(Br)c3)nc(N3CCOCC3)n2)c1 [compound 6c]
0.33

Identify measured GI50 associated with Fc1cccc(Cl)c1/C=N/Nc1nc(N/N=C/c2c(F)cccc2Cl)nc(N2CCCCC2)n1 [compound 7l]
3.08

====

Target: UniProt P48735
Sequence (P48735 40-452): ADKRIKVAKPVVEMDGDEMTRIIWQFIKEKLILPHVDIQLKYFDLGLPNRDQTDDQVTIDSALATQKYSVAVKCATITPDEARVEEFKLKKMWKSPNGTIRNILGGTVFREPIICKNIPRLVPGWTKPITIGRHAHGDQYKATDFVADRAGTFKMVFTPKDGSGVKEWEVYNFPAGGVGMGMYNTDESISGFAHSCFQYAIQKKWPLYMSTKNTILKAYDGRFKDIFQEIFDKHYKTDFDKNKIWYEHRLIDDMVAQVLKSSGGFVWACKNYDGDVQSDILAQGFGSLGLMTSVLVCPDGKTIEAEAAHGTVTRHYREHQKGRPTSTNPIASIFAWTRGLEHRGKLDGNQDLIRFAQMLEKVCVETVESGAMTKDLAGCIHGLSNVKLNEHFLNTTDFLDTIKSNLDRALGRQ
assay-readout: pIC50
Entry type: numeric. Quantity: pIC50, the -log10 of concentration in molar units.

Use these answered entries as a reference point.
Fc1cccc(Cl)c1/C=N/Nc1nc(N/N=C/c2c(F)cccc2Cl)nc(N2CCCCC2)n1 [compound 7l] | 5.02
Brc1cccc(/C=N/Nc2nc(N/N=C/c3cccc(Br)c3)nc(N3CCCCC3)n2)c1 [compound 7c] | 5.50
Brc1cccc(/C=N/Nc2nc(N/N=C/c3cccc(Br)c3)nc(N3CCOCC3)n2)c1 [compound 6c] | 5.53

Please look at CC(C)(O)CNc1nc(Nc2ccnc(C(F)(F)F)c2)nc(-c2cccc(C(F)(F)F)n2)n1 [Enasidenib] and tell me its recorded pIC50 on UniProt P48735.
5.63

Supply pIC50 measured with UniProt P48735 for Fc1cccc(/C=N/Nc2nc(N/N=C/c3cccc(F)c3)nc(N3CCCCC3)n2)c1 [compound 7e] .
5.29

Jot down pIC50 (UniProt P48735) of Oc1ccccc1/C=N/Nc1nc(N/N=C/c2ccccc2O)nc(N2CCCCC2)n1 [compound 7a] .
5.27

Report the value of pIC50 obtained on UniProt P48735 for Fc1cccc(/C=N/Nc2nc(N/N=C/c3cccc(F)c3)nc(N3CCOCC3)n2)c1 [compound 6e] .
5.64

Report pIC50 on UniProt P48735 for this entry: Fc1cccc(Cl)c1/C=N/Nc1nc(N/N=C/c2c(F)cccc2Cl)nc(N2CCOCC2)n1 [compound 6l]
5.46

====

Target: IDH2^R140Q (Homo sapiens, UniProt P48735, R140Q)
Sequence (P48735 40-452 R140Q): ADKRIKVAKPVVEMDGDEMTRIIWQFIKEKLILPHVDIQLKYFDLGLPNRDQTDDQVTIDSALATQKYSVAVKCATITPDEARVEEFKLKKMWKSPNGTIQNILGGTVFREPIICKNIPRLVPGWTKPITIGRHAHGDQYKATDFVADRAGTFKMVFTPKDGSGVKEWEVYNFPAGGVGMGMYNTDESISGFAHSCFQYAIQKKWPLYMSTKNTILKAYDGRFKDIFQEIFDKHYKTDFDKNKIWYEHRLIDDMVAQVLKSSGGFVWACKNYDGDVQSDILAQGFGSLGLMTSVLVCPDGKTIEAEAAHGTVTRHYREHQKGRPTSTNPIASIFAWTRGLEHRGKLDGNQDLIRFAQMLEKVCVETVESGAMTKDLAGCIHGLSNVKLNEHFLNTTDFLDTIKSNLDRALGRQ
Assay: biochemical
Parameter: IC50. Scope: all listed entries.
Please append the unit to your numeric answer.

Example entries begin here.
Clc1cccc(/C=N/Nc2nc(N/N=C/c3cccc(Cl)c3)nc(N3CCCCC3)n2)c1 [compound 7d] | 370 nM
CC(C)(O)CNc1nc(Nc2ccnc(C(F)(F)F)c2)nc(-c2cccc(C(F)(F)F)n2)n1 [Enasidenib] | 75.5 nM

Consider the compound Fc1cccc(Cl)c1/C=N/Nc1nc(N/N=C/c2c(F)cccc2Cl)nc(N2CCCCC2)n1 [compound 7l] . State its measured IC50.
160 nM

Determine its reported IC50: Oc1ccccc1/C=N/Nc1nc(N/N=C/c2ccccc2O)nc(N2CCOCC2)n1 [compound 6a]
373 nM
